assay_overview: in vitro
measurement_setup: human, hela cells, % viability
Parameter: viability at 28.5 h, 10 µM. Scope: all listed entries.
Quick note: give the figure in %, leave out the unit.

These solved cases illustrate the format of a correct answer.
Value of viability at 28.5 h, 10 µM reported for the compound Fc1ccc(-c2cncc(NCCc3ccncc3)n2)c(F)c1 [CBK065810] is 104

Please fill in: viability at 28.5 h, 10 µM reported for OC(CSc1ccccc1)CN1CCC(Nc2nccc(C(F)(F)F)n2)CC1 (centres unmarked) [CBK074648] = 94.5

For Cc1c(C)n(Cc2ccco2)c2ncnc(NCCCC(=O)O)c12 [CBK307562] the compound record lists viability at 28.5 h, 10 µM as 90.7

Cn1nnnc1NC(=O)c1ccccc1F [CBK058776] has a reported viability at 28.5 h, 10 µM of 102

---
The compound listed as COc1ccc(C)cc1S(=O)(=O)N(CC(=O)O)Cc1ccccc1 [CBK267847] has a reported viability at 28.5 h, 10 µM of 108

###

assay_overview: in vitro
Parameters: Viability of infected HeLa host cells, resazurin conversion, bulk resorufin fluorescence relative to DMSO
measurement_setup: human, hela cells; bulk resorufin, mean of 2
viability at 28.5 h, 5 µM reference
Remember to quote the unit after the number.

Sample Cc1cc2cc(C(=O)N3CCC(c4c(C(=O)NC(C)C)sc5ccccc45)C3)ccc2o1 (stereo not drawn) ; viability at 28.5 h, 5 µM observed: 97.6%

Next:
// field: viability at 28.5 h, 5 µM; key: CCCc1cc(C(=O)N2CCN(c3nccc(OC)n3)CC2)[nH]n1 ; value = 93.7%

get_value(item= Cc1ccc(NC(=O)n2ccc3c(N4CCNCC4)cccc32)cc1[N+](=O)[O-] [CBK003747C] , readout=viability at 28.5 h, 5 µM) returns 85.5%

Memo: FC(F)(F)c1ccc(N2CCNCC2)nc1OCc1ccc2c(c1)OCCO2 [CBK003994A] , reported viability at 28.5 h, 5 µM: 103%

Measured viability at 28.5 h, 5 µM of CC(NC(=O)N(Cc1ccccc1C(F)(F)F)CC(C)(C)CN)c1cccc2ccccc12 (stereo not drawn) [CBK002422C] : 94.1%

Please fill in: viability at 28.5 h, 5 µM reported for COc1cccc(C(=O)N2CCC(Cc3ccc(-c4cccc(C)c4)cc3)(C(N)=O)CC2)c1 = 98.8%

###

assay_overview: in vitro
measurement_setup: human, hela cells, % viability
quantity_kind: viability at 28.5 h, 10 µM (%)
Reply numerically in %, unit not repeated.

Consider the worked cases shown below.
// CCCc1[nH]nc(O)c1CC1CC1 [CBK081129] : viability at 28.5 h, 10 µM value = 110

viability at 28.5 h, 10 µM in this record for O=C(O)CC1CCC2(CC1)Cc1ccccc1C2 [CBK012397] : 89.8

Item: COCCNC(=O)N1CCN(Cc2ccccn2)CC1 [CBK304817] | viability at 28.5 h, 10 µM: 110

Looking up NS(=O)(=O)c1ccc(NC(=O)CCC(=O)O)cc1 [CBK261350] , I found its viability at 28.5 h, 10 µM recorded as 86.9

response.value for CC1OCN(c2ccc(C(C)(C)C)cc2)Cn2c1nc1ccccc12 (centres unmarked) [CBK018706] (field: viability at 28.5 h, 10 µM) = 88

response.value for CN1CCC[C@@H]2[C@H]1[C@@H](c1ccc(F)cc1)CN2C(=O)c1ccccn1 [CBK283081] (field: viability at 28.5 h, 10 µM) = 103

More entries:
The reported viability at 28.5 h, 10 µM of the compound CSc1cc(-c2ccc(F)cc2)n[nH]1 [CBK028809] was 123

Form field viability at 28.5 h, 10 µM, entry O=C(C1CC(O)CN1)N1CC2(CCCC2)c2c(F)cccc21 (centres unmarked) [CBK304269C] : 99

Notebook: CC(Cc1cccs1)NC(=O)c1cccc(-n2cnnc2)c1 (centres unmarked) [CBK282443] , viability at 28.5 h, 10 µM read as 102

viability at 28.5 h, 10 µM reading for CC(=O)NCCNS(=O)(=O)c1ccc(C(C)C)cc1 [CBK043726] : 92.5

Memo: COc1ccc(NC(=O)Nc2ccc3nc(C)c(C)nc3c2)cc1 [CBK265120] , reported viability at 28.5 h, 10 µM: 97.4

# viability at 28.5 h, 10 µM of C=C1S/C(=N\c2cc(Cl)cc(Cl)c2)NC1(CC)CC [CBK009484] = 109

O=C(CCC1CCCC1)n1ccn(CCc2cccs2)c1=O [CBK106611] yielded viability at 28.5 h, 10 µM of 97.6

Reported viability at 28.5 h, 10 µM of O=C1CSC2(C(=O)Nc3ccccc32)N1c1cccc(F)c1 (centres unmarked) [CBK093488] : 99.2

###

Reported viability at 28.5 h, 10 µM by item:
assay_overview: in vitro
measurement_setup: human, hela cells, % viability
Expressed in %, but write only the number.

Example molecules with recorded viability at 28.5 h, 10 µM:
viability at 28.5 h, 10 µM for CC(C)C[C@@H]1N[C@H](C(=O)NCCN(C)C)Cc2c[nH]c3cccc1c23 is 92.9

# molecule CCOC(=O)C(C(C)=O)(N1CCOCC1)N1CCOCC1 ; its viability at 28.5 h, 10 µM = 90.2

// Cc1nn(-c2ccccn2)c(C)c1[C@@H]1C=C[C@@H](NS(C)(=O)=O)C1 : viability at 28.5 h, 10 µM value = 86.8

Form: molecule = CCSc1nc2ccccc2n1C(=O)c1ccc(S(=O)(=O)N2CCCCCC2)cc1 ; viability at 28.5 h, 10 µM = 91.6

***
Short answer for CCN(CC)C(=O)c1sc2ccccc2c1Cl : viability at 28.5 h, 10 µM was 103

###

assay_overview: in vitro
measurement_setup: human, hela cells, % viability
quantity_kind: viability at 28.5 h, 10 µM (%)
Express it in %; write the number only.

Quick note, viability at 28.5 h, 10 µM for COc1cc(C(=O)N2CCCC3(CC(=O)c4ccc(C)cc4O3)C2)cc(OC)c1C (stereo not shown) [CBK168239] landed at 87.2

Lookup result for O=c1[nH]c(=O)c2cc(S(=O)(=O)Nc3ccc(Cn4ccnc4)cc3)ccc2[nH]1 [CBK286383] ; measured viability at 28.5 h, 10 µM: 105

###

assay_overview: in vitro
measurement_setup: human, hela cells, % viability
quantity_kind: viability at 28.5 h, 10 µM (%)
Record the value in %, omitting the unit from your answer.

Data point: Cc1cc(CN(C)Cc2c(C)nn(-c3ccc(F)cc3)c2C)n[nH]1 ; viability at 28.5 h, 10 µM = 95

The recorded viability at 28.5 h, 10 µM for entry Brc1csc(CNc2ccc3cn[nH]c3c2)c1 equals 75.1

Consider CCn1c(SCC(=O)Nc2ccc([N+](=O)[O-])cc2O)nnc1-c1ccccc1 . Its measured viability at 28.5 h, 10 µM is 87.2

New cases:
So, O=C(Nc1ccc(Cl)cc1)NC1(C(=O)NCc2ccncc2)CCCCC1 ? Its viability at 28.5 h, 10 µM was 100

CC1(c2ccc(Br)cc2)NC(=O)CS1 (centres unmarked) yielded viability at 28.5 h, 10 µM of 92.2

###

assay_overview: in vitro
measurement_setup: human, hela cells, % viability
Doc: threshold 90% (exclusive). Items with viability at 28.5 h, 10 µM beneath it return class 1; others return class 0.

Solved cases below.
Problem: Could you please tell me whether viability at 28.5 h, 10 µM recorded for Cc1ccc(Cn2ncc3c(C(=O)N4CCC(N(C)S(C)(=O)=O)CC4)cc(C)nc32)cc1 is less than 90%?
Solution: class 0

Problem: Hello, I'm reviewing records and need to know if viability at 28.5 h, 10 µM of Cc1c(C(=O)O)sc2nc(C=Cc3cc([N+](=O)[O-])ccc3Cl)[nH]c(=O)c12 is below 90%. Could you check?
Solution: class 0

Problem: Confirm or reject: viability at 28.5 h, 10 µM of CCCSc1ncc(Cl)c(C(=O)Nc2ccc(S(=O)(=O)N3CC(C)OC(C)C3)cc2)n1 (stereo not drawn) lies strictly below 90%
Solution: class 0

Problem: Quick check: does Cc1cccc(-c2ocnc2C(=O)NCCCn2ccnc2)c1 have viability at 28.5 h, 10 µM under 90%?
Solution: class 1

API: the following record is the query input.
Problem: Item O=C(CN1C(=O)C2C3C=CC(C3)C2C1=O)OCC(=O)c1ccccc1 (stereo not drawn) : viability at 28.5 h, 10 µM beneath 90%, strictly?
Solution: class 0

###

Quick list: viability at 28.5 h, 10 µM per entry.
assay_overview: in vitro
measurement_setup: human, hela cells, % viability
Express the result in % but write the number alone.

The value of viability at 28.5 h, 10 µM measured for the molecule CCOc1ncccc1NC(=O)Cc1cccc(OC)c1 turned out to be 94.8

# viability at 28.5 h, 10 µM (molecule: COc1ccc(C(C)NC2CCN(c3nc(C)cs3)CC2)cc1F (stereo not shown) ) is 94.7

viability at 28.5 h, 10 µM measured on CCOc1cccc(CNC(=O)N2CCC(Cc3cnn(C)c3)C2)c1 (stereo not shown) = 115

Value of measured viability at 28.5 h, 10 µM for the entry COc1ccc(C2Oc3cccnc3N(CCCN(C)C)C2=O)cc1 (stereo not shown) : 101

The recorded viability at 28.5 h, 10 µM for Cc1nc(-c2ccccc2)sc1CNC(=O)COc1ccc(F)cc1 is 86.3

***
# viability at 28.5 h, 10 µM of CC(Sc1ccc(Cl)cc1)C(=O)Nc1ccc(CSc2ccccc2)cc1 (stereo not shown) = 93.2

Record summary for C=CCN1C(=O)C2(CC(=O)N(C)C2=O)c2ccccc21 (stereo not shown) : reported viability at 28.5 h, 10 µM = 93.6

viability at 28.5 h, 10 µM recorded for this molecule, CC(C)C(=O)NC1CCN(C(=O)CCn2ccc3ccncc32)CC1 , is 98

Value of measured viability at 28.5 h, 10 µM for the entry Cc1cccc(OCCCn2cncc2-c2cnn(C)c2)c1 : 82

Entry CCCCCOc1ccc(Nc2cc(-c3ccccc3N(C)C)ncn2)cc1 ; viability at 28.5 h, 10 µM = 81.9
